Target: human cloned 5-HT1A receptors (Homo sapiens, UniProt P08908)
Construct: expressed in transfected cells; host or cells: HeLa (human), stably transfected; membranes
Test: [35S]GTPγS binding, functional activity
Type: biochemical
Design: key: neutral antagonists (NA); inverse agonists (IA)
Conditions: HeLa membranes with human 5-HT1A
measure name: Functional Activity

INSERT INTO assay_data (compound, measure_name, meas_value) VALUES
  ('COc1ccccc1N1CCN(CC[C@@H](c2ccccc2F)[C@@H](C2CCCCC2)N(C)C(=S)N(C)C)CC1 (racemic)', 'Functional Activity', 'IA'),
  ('COC(=O)N[C@H](C1CCCCC1)[C@@H](CCN1CCN(c2ccccc2OC)CC1)c1ccccc1F (racemic)', 'Functional Activity', 'IA'),
  ('CON[C@H](C1CCCCC1)[C@@H](CCN1CCN(c2ccccc2OC)CC1)c1ccccc1F (racemic)', 'Functional Activity', 'IA'),
  ('COc1ccccc1N1CCN(CC[C@@H](c2ccccc2F)[C@@H](C2CCCCC2)N(C(C)=O)C(C)=O)CC1 (racemic)', 'Functional Activity', 'IA'),
  ('COc1ccccc1N1CCN(CCC(c2ccccc2F)C(NCc2ccccc2)C2CCCCC2)CC1 (centres unmarked)', 'Functional Activity', 'IA'),
  ('COc1ccccc1N1CCN(CC[C@@H](c2ccccc2F)[C@H](NC(=S)N(C)C)C2CCCCC2)CC1 (single isomer, unassigned) [Example 24A]', 'Functional Activity', 'IA'),
  ('COc1ccccc1N1CCN(CC[C@@H](c2ccccc2F)[C@H](NC(C)=O)C2CCCCC2)CC1 (racemic)', 'Functional Activity', 'IA'),
  ('CC(=O)N(C)C(C1CCCCC1)C(CCN1CCN(c2cccc3c2OCCO3)CC1)c1ccccc1F (centres unmarked)', 'Functional Activity', 'IA');

====

Target: 5-HT1A receptors (Rattus norvegicus)
Construct: from tissue; host or cells: living male Sprague-Dawley rats (whole animal, behavioural read-out)
Sequence (P19327 whole entry): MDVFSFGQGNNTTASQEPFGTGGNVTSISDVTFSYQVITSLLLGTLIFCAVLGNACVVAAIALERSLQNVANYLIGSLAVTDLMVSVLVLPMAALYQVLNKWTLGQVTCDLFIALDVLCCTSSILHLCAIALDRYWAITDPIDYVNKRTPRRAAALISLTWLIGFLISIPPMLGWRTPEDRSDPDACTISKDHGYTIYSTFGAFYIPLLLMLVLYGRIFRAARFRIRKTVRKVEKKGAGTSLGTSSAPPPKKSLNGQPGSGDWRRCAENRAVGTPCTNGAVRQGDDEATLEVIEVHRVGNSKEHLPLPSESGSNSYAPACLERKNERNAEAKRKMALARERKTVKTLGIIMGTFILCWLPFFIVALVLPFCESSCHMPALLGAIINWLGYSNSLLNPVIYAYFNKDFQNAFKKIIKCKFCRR
Assay: Inhibition of serotonergic syndrome (forepaw treading) induced by 8-OH-DPAT in rats (post-synaptic antagonism)
Type: in vivo
Settings: rat, 10 mg/kg p.o., 4 h before 8-OH-DPAT 1 mg/kg s.c., read-out: % Inhibition of forepaw treading, 4 h
measure name: inhibition at 10 mg/kg

INSERT INTO measurements (molecule, system_name, measure_name, meas_value) VALUES
  ('CON[C@H](C1CCCCC1)[C@H](CCN1CCN(c2ccccc2OC)CC1)c1ccccc1F (racemic)', '5-HT1A receptors (Rattus norvegicus)', 'inhibition at 10 mg/kg', '67%'),
  ('CONC(C1CCCCC1)C(CCN1CCN(c2ccccc2OC)CC1)c1ccccc1F (mixture of isomers)', '5-HT1A receptors (Rattus norvegicus)', 'inhibition at 10 mg/kg', '68%'),
  ('COc1ccccc1N1CCN(CC[C@@H](c2ccccc2F)[C@@H](C2CCCCC2)N(C)C)CC1 (racemic)', '5-HT1A receptors (Rattus norvegicus)', 'inhibition at 10 mg/kg', '56%'),
  ('COC(=O)N[C@H](C1CCCCC1)[C@@H](CCN1CCN(c2ccccc2OC)CC1)c1ccccc1F (racemic)', '5-HT1A receptors (Rattus norvegicus)', 'inhibition at 10 mg/kg', '92%');

====

Target: human 5HT1A-serotonergic receptor (Homo sapiens, UniProt P08908)
Construct: expressed in transfected cells; host or cells: HeLa (human), stably transfected; membranes
Sequence (P08908 1-422): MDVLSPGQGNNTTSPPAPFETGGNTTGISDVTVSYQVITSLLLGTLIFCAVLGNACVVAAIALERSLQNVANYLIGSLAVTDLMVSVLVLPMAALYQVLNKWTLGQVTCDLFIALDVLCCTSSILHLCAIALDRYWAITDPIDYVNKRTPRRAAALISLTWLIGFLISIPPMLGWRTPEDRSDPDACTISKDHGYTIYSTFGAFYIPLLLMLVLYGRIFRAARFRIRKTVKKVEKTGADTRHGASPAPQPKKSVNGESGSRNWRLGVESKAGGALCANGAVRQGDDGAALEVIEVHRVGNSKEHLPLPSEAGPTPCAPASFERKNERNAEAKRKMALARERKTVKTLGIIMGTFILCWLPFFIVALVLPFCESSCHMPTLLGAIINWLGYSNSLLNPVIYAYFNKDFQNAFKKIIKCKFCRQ
Test: Radioligand binding to recombinant 5-HT1A receptor ([3H]8-OH-DPAT, HeLa cell membranes)
Details: 1 nM [3H]8-OH-DPAT; Ki from IC50 by the Cheng equation; read-out: Ki (nM), binding affinity for 5HT1A receptor
This listing pairs molecules with measured Ki.
measure name: Ki (nM)

INSERT INTO results (molecule, measure_name, meas_value) VALUES
  ('COc1ccccc1N1CCN(CC[C@@H](c2ccccc2F)[C@H](NC(=S)N(C)C)C2CCCCC2)CC1 (racemic) [Example 24]', 'Ki', 1.23),
  ('COc1ccccc1N1CCN(CC[C@@H](c2ccccc2F)[C@H](N)C2CCCCC2)CC1 (racemic) [Example 5a]', 'Ki', 0.48),
  ('CNC(=O)N[C@H](C1CCCCC1)[C@@H](CCN1CCN(c2ccccc2OC)CC1)c1ccccc1F (racemic)', 'Ki', 2.09),
  ('CNC(=S)N[C@H](C1CCCCC1)[C@@H](CCN1CCN(c2ccccc2OC)CC1)c1ccccc1F (racemic)', 'Ki', 0.58),
  ('CONC(C1CCCCC1)C(CCN1CCN(c2ccccc2OC)CC1)c1ccccc1F (mixture of isomers)', 'Ki', 0.88),
  ('COc1ccccc1N1CCN(CC[C@@H](c2ccccc2F)[C@@H](C2CCCCC2)N(C)C(=O)N(C)C)CC1 (racemic)', 'Ki', 1.24),
  ('COc1ccccc1N1CCN(CCC(C(=NOC(C)=O)C2CCCCC2)c2ccccc2F)CC1 (centres unmarked)', 'Ki', 0.87),
  ('COc1ccccc1N1CCN(CC[C@H](c2ccccc2F)[C@H](N)C2CCCCC2)CC1 (racemic)', 'Ki', 0.77),
  ('COc1ccccc1N1CCN(CCC(c2ccccc2F)C(C2CCCCC2)N(Cc2ccco2)Cc2ccco2)CC1 (centres unmarked)', 'Ki', 7.28),
  ('COc1ccccc1N1CCN(CC[C@@H](c2ccccc2F)[C@H](N)C2CCCCC2)CC1 (single isomer, unassigned) [Example 5aA]', 'Ki', 0.6),
  ('CNC(C1CCCCC1)C(CCN1CCN(c2ccccc2OC)CC1)c1ccccc1F (centres unmarked) [Example 10a]', 'Ki', 0.49),
  ('COc1ccccc1N1CCN(CC[C@H](c2ccccc2F)[C@@H](N)C2CCCCC2)CC1 (single isomer, unassigned)', 'Ki', 1.2),
  ('COc1ccccc1N1CCN(CC[C@@H](c2ccccc2F)[C@@H](C2CCCCC2)N(C(C)=O)C(C)=O)CC1 (racemic)', 'Ki', 0.68),
  ('COc1ccccc1N1CCN(CCC(c2ccccc2F)C(NCc2ccccc2)C2CCCCC2)CC1 (centres unmarked)', 'Ki', 0.3),
  ('CON=C(C)C(CCN1CCN(c2cccc3c2OCCO3)CC1)c1ccccc1F (mixture of isomers)', 'Ki', 1.33),
  ('COc1ccc(Br)c(CN2CCN(CCC(c3ccccc3F)C(C3CCCCC3)N(C)C(C)=O)CC2)c1 (centres unmarked)', 'Ki', 0.8),
  ('COc1ccccc1N1CCN(CC[C@@H](c2ccccc2F)[C@H](NC(C)=O)C2CCCCC2)CC1 (racemic)', 'Ki', 1.69),
  ('COc1ccccc1N1CCN(CCC(c2ccccc2F)C(C2CCCCC2)N(C)C(C)=O)CC1 (racemic)', 'Ki', 0.86),
  ('COc1ccccc1N1CCN(CC[C@@H](c2ccccc2F)[C@@H](C2CCCCC2)N(C)C)CC1 (racemic)', 'Ki', 1),
  ('CNC(C1CCCCC1)C(CCN1CCN(c2ccccc2OC)CC1)c1ccccc1F (centres unmarked) [Example 10b]', 'Ki', 1.41),
  ('COc1ccccc1N1CCN(CC[C@@H](c2ccccc2F)[C@H](NC(C)C)C2CCCCC2)CC1 (racemic)', 'Ki', 0.99),
  ('O=CNC(C1CCCCC1)C(CCN1CCN(c2cccc3[nH]cnc23)CC1)c1ccccc1F (centres unmarked)', 'Ki', 0.8),
  ('COc1ccccc1N1CCN(CCC(c2ccccc2F)C(NC(=O)N2CCOCC2)C2CCCCC2)CC1 (centres unmarked)', 'Ki', 2.9),
  ('COc1ccccc1N1CCN(CC[C@@H](c2ccccc2F)[C@@H](C2CCCCC2)N(C)C(=S)N(C)C)CC1 (racemic)', 'Ki', 1.7),
  ('COc1ccccc1N1CCN(CC[C@@H](c2ccccc2F)[C@H](NC(=S)N(C)C)C2CCCCC2)CC1 (single isomer, unassigned) [Example 24A]', 'Ki', 0.7),
  ('CC(=NO)C(CCN1CCN(c2cccc3c2OCCO3)CC1)c1ccccc1F (centres unmarked)', 'Ki', 1.77),
  ('COc1ccccc1N1CCN(CC[C@@H](c2ccccc2F)[C@H](NC(=O)N(C)C)C2CCCCC2)CC1 (racemic)', 'Ki', 2.1),
  ('COc1ccccc1N1CCN(CC[C@@H](c2ccccc2F)[C@H](NC(N)=O)C2CCCCC2)CC1 (racemic)', 'Ki', 1.84),
  ('O=CNC(C1CCCCC1)C(CCN1CCN(c2cccc3c2OCCO3)CC1)c1ccccc1F (centres unmarked)', 'Ki', 0.8);
